Where do the numbers come from? From patent US20230118497A1.

Measured half-life at 1 μM accompanies every entry in the list below.
# Test method notes: Metabolic stability in liver microsome (dog)
# Assay type: in vitro ADME
# Measurement conditions: liver microsomes; dog liver microsome 0.5 mg/mL, compound 1 μM, NADPH/UDPGA
Your answer is read as h, so omit the unit and give the number.

Study these solved cases before continuing.
>>> observed_value("N#Cc1cc2n(CC(=O)Nc3ccc(F)cn3)c(=O)c3ccc(C(F)(F)F)nc3n2n1 [Example 68]")
22.5
>>> observed_value("O=C(Cn1c(=O)c2ccc(C(F)(F)F)nc2n2nc(Br)cc12)Nc1ccc(F)cn1 [Example 61-A]")
15.6

Field: next compound
IN: Find the measured half-life at 1 μM of O=C(Cn1c(=O)c2ccc(C(F)(F)F)nc2n2nccc12)Nc1ccc(F)cn1 [Example 78] and report it.
OUT: 11.2
